- Species: Rattus norvegicus
- PROTOCOL: Open TG-GATES - Regimen: Single
- Format: toxicity, organism-based, Sprague-Dawley
- Parameters: regimen Single, gender Male, age 6 weeks
- SETUP_CONDITIONS: in vivo, po, 0 mg/kg, 24 h, tissue Plasma, route gavage, dose level Control
METRIC: DBIL (mg/dL)

COc1ccc(O)c(C(C)(C)C)c1.COc1ccc(O)cc1C(C)(C)C [BUTYLATED HYDROXYANISOLE] :: 0.018
Cn1cnc([N+](=O)[O-])c1Sc1ncnc2nc[nH]c12 :: 0
O=C1CN(/N=C/c2ccc(-c3ccc([N+](=O)[O-])cc3)o2)C(O)=N1 :: 0.012
O=C1NC(=O)C(c2ccccc2)(c2ccccc2)N1 :: 0.024
C=CCO :: 0.098
S=C=Nc1cccc2ccccc12 [1-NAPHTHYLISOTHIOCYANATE] :: 0.062
CS(=O)(=O)Nc1ccc([N+](=O)[O-])cc1Oc1ccccc1 [NIMESULIDE] :: 0.012
Cc1cnc(NC(=O)C2=C(O)c3ccccc3S(=O)(=O)N2C)s1 :: 0.098
CNCCC(Oc1ccc(C(F)(F)F)cc1)c1ccccc1.Cl (stereo unspecified) [FLUOXETINE HYDROCHLORIDE] :: 0.012
COc1ccc(Cl)cc1C(=O)NCCc1ccc(S(=O)(=O)NC(=O)NC2CCCCC2)cc1 [GLYBURIDE] :: 0.1
Cc1cccc(Nc2cc(Cl)nc(SCC(=O)O)n2)c1C :: 0.02
